# TARGET_UNDER_TEST: Human PD-L1/PD-1 (Homo sapiens)
# Construct: made in house; host or cells: HEK293T
# TEST_PROTOCOL: HTRF PD-1-Ig/PD-L1-His binding assay (human PD-L1)
# CONDITION_DESCRIPTION: cluster symbol; read-out: HTRF IC50 cluster
# Excerpt: The ability of the macrocyclic peptides of the present disclosure to bind to PD-L1 was investigated using a PD-1/PD-L1 Homogenous Time-Resolved Fluorescence (HTRF) binding assay. Homogenous Time-Resolved Fluorescence (HTRF) Assays of Binding of Soluble PD-1 to Soluble PD-L1. […]
pIC50: −log10 of the molar value.
PROPERTY_NAME: pIC50

SMI	PROPERTY_NAME	REPORTED_MEASUREMENT
CCCC[C@H]1C(=O)N(C)[C@@H](CCCC)C(=O)N[C@@H](C)C(=O)N[C@H](C(=O)NCC(N)=O)CSCC(=O)N[C@@H](Cc2ccc(O)cc2)C(=O)N(C)[C@@H](C)C(=O)N[C@@H](CC(N)=O)C(=O)N2CCC[C@H]2C(=O)N[C@@H](Cc2cnc[nH]2)C(=O)N[C@@H](CCC(N)=O)C(=O)N2C[C@H](O)C[C@H]2C(=O)N[C@@H](Cc2c[nH]c3ccccc23)C(=O)N[C@@H](CO)C(=O)N[C@@H](Cc2c[nH]c3ccccc23)C(=O)N1C	pIC50	7.52 to 8.17

----------
# TARGET_UNDER_TEST: LK35.2-hPD-L1 cells / PE-labeled PD-1-Ig (Homo sapiens)
# Construct: expressed in transfected cells; host or cells: LK35.2 mouse B cell line
# Sequence (Q9NZQ7 19-290): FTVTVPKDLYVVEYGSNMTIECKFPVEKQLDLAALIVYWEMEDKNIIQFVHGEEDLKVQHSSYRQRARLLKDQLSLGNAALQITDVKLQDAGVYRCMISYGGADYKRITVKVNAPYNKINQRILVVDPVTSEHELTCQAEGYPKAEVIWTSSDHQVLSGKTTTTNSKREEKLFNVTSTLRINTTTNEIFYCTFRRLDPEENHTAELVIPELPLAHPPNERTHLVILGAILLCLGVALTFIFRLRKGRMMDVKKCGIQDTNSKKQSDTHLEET
# TEST_PROTOCOL: LK35.2-hPD-L1 cell binding high-content screening assay
# Type: cell-based
# CONDITION_DESCRIPTION: cluster symbol; cell line of CBA not given (LK35.2-hPD-L1 or 293T-hPD-L1); read-out: CBA IC50 cluster
Positions of bridges follow the written chain, without caps; N, C: chain ends. Non-standard residues stand in square brackets, D forms with d. Residues, ends and D or L forms follow the SMILES beside them. *: point of attachment. Cyclobutanecarbonyl = O=C(C1CCC1)*; NMeA = CN[C@@H](C)C(=O)O; Dab = NCC[C@H](N)C(=O)O; Sar = CNCC(=O)O

MOLECULE	IC50
CC(C)C[C@@H]1NC(=O)[C@H](Cc2cnc[nH]2)NC(=O)[C@@H]2CCCN2C(=O)[C@H](CC(N)=O)NC(=O)[C@H](C)N(C)C(=O)[C@H](Cc2ccccc2)NC(=O)CSC[C@@H](C(=O)NCC(N)=O)NC(=O)[C@H](CCCNC(=N)N)NC(=O)[C@H](C)N(C)C(=O)[C@H](CCNC(=O)C2CCC2)NC(=O)[C@H](Cc2c[nH]c3ccccc23)NC(=O)[C@H](CO)NC(=O)[C@H](Cc2c[nH]c3ccccc23)NC(=O)CN(C)C1=O [Example 1034] ({CH2CO}-F[NMeA]NPHL[Sar]WSW[Dab](Cyclobutanecarbonyl)[NMeA]RCG-NH2; thioether N-14)	> 74.3 nM

----------
# TARGET_UNDER_TEST: Human PD-L1/PD-1 (Homo sapiens)
# Construct: made in house; host or cells: HEK293T
# TEST_PROTOCOL: HTRF PD-1-Ig/PD-L1-His binding assay (human PD-L1)
# CONDITION_DESCRIPTION: cluster symbol; read-out: HTRF IC50 cluster
Positions of bridges follow the written chain, without caps; N, C: chain ends. Non-standard residues stand in square brackets, D forms with d. Residues, ends and D or L forms follow the SMILES beside them. ξ: configuration not given here. Bta = N[C@@H](Cc1csc2ccccc12)C(=O)O; NMehSer = CN[C@@H](CCO)C(=O)O; NMeNle = CCCC[C@H](NC)C(=O)O; NMeA = CN[C@@H](C)C(=O)O; ξC = NC(CS)C(=O)O
PROPERTY_NAME: IC50

MOLECULE	PROPERTY_NAME	REPORTED_MEASUREMENT
CCCC[C@H]1C(=O)N(C)[C@@H](CCOC)C(=O)N[C@@H](CCCNC(=N)N)C(=O)NC(C(=O)NCC(N)=O)CSCC(=O)N[C@@H](Cc2ccc(O)cc2)C(=O)N(C)[C@@H](C)C(=O)N[C@@H](CC(=O)O)C(=O)N2CCC[C@H]2C(=O)N[C@@H](Cc2cnc[nH]2)C(=O)N[C@@H](CC(C)C)C(=O)N2CCC[C@H]2C(=O)N[C@@H](Cc2c[nH]c3ccccc23)C(=O)N[C@@H](CO)C(=O)N[C@@H](Cc2csc3ccccc23)C(=O)N1C (stereo partly shown) [Example 9008] ({CH2CO}-Y[NMeA]DPHLPWS[Bta][NMeNle][NMehSer](Me)R[ξC]G-NH2; thioether N-14)	IC50	0.385 to 6.74 nM

----------
Let's look at some compounds and their measured pIC50.
# TARGET_UNDER_TEST: Human PD-L1/PD-1 (Homo sapiens, UniProt Q9NZQ7)
# Construct: made in house; host or cells: HEK293T
# Sequence (Q9NZQ7 with tags, fused parts or gaps): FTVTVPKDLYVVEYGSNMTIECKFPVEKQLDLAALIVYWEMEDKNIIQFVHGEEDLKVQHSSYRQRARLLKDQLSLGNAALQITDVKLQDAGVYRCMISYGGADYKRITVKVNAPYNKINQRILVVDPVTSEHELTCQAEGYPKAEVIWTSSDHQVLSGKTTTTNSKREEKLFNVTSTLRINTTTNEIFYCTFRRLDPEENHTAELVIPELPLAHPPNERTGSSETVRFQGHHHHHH
# TEST_PROTOCOL: HTRF PD-1-Ig/PD-L1-His binding assay (human PD-L1)
# CONDITION_DESCRIPTION: cluster symbol; read-out: HTRF IC50 cluster
pIC50: −log10 of the molar value. Positions of bridges follow the written chain, without caps; N, C: chain ends. Non-standard residues stand in square brackets, D forms with d. Residues, ends and D or L forms follow the SMILES beside them. Ala(indol-4-yl) = N[C@@H](Cc1cccc2[nH]ccc12)C(=O)O; NMeF = CN[C@@H](Cc1ccccc1)C(=O)O; dHyp = O=C(O)[C@H]1C[C@H](O)CN1; NMeNle = CCCC[C@H](NC)C(=O)O; Sar = CNCC(=O)O

COMPOUND	pIC50
CCCC[C@H]1C(=O)N(C)CC(=O)N[C@@H](CC(=O)O)C(=O)N[C@@H](C(C)C)C(=O)N(C)[C@@H](Cc2ccccc2)C(=O)N[C@@H](Cc2ccc(O)cc2)C(=O)N2C[C@@H](O)C[C@@H]2C(=O)N[C@@H](Cc2c[nH]c3ccccc23)C(=O)N[C@@H](Cc2ccc(O)cc2)C(=O)N[C@@H](CC(C)C)C(=O)N[C@H](C(=O)NCC(N)=O)CSCC(=O)N[C@@H](Cc2ccccc2)C(=O)N(C)[C@@H](Cc2ccccc2)C(=O)N1C [Example 3576] ({CH2CO}-F[NMeF][NMeNle][Sar]DV[NMeF]Y[dHyp]WYLCG-NH2; thioether N-13)	7.52 to 8.17
CCCC[C@H]1C(=O)N(C)CC(=O)N[C@@H](CC(=O)O)C(=O)N[C@@H](C(C)C)C(=O)N(C)[C@@H](Cc2ccccc2)C(=O)N[C@@H](Cc2cccc3[nH]ccc23)C(=O)N(C)CC(=O)N[C@@H](Cc2c[nH]c3ccccc23)C(=O)N[C@@H](Cc2ccc(O)cc2)C(=O)N[C@@H](CC(C)C)C(=O)N[C@H](C(=O)NCC(N)=O)CSCC(=O)N[C@@H](Cc2ccccc2)C(=O)N(C)[C@@H](Cc2ccccc2)C(=O)N1C [Example 3110] ({CH2CO}-F[NMeF][NMeNle][Sar]DV[NMeF][Ala(indol-4-yl)][Sar]WYLCG-NH2; thioether N-13)	7.52 to 8.17

----------
# TARGET_UNDER_TEST: Human PD-L1/PD-1 (Homo sapiens)
# Construct: made in house; host or cells: HEK293T
# TEST_PROTOCOL: HTRF PD-1-Ig/PD-L1-His binding assay (human PD-L1)
# CONDITION_DESCRIPTION: cluster symbol; read-out: HTRF IC50 cluster
Positions of bridges follow the written chain, without caps; N, C: chain ends. Non-standard residues stand in square brackets, D forms with d. Residues, ends and D or L forms follow the SMILES beside them. NMeNle = CCCC[C@H](NC)C(=O)O; NMeA = CN[C@@H](C)C(=O)O

MOLECULE	IC50
CCCC[C@H]1C(=O)N(C)[C@@H](CCCC)C(=O)N[C@@H](C)C(=O)N[C@H](C(=O)NCC(N)=O)CSCC(=O)N[C@@H](Cc2ccc(O)cc2)C(=O)N(C)[C@@H](C)C(=O)N[C@@H](CC(=O)O)C(=O)N2CCC[C@H]2C(=O)N[C@@H](Cc2cnc[nH]2)C(=O)N[C@@H](CCC(N)=O)C(=O)N2CCC[C@H]2C(=O)N[C@@H](Cc2c[nH]c3ccccc23)C(=O)N[C@@H](CO)C(=O)N[C@@H](Cc2c[nH]c3ccccc23)C(=O)N1C [Example 6024] ({CH2CO}-Y[NMeA]DPHQPWSW[NMeNle][NMeNle]ACG-NH2; thioether N-14)	0.385 to 6.74 nM

----------
# TARGET_UNDER_TEST: LK35.2-hPD-L1 cells / PE-labeled PD-1-Ig (Homo sapiens)
# Construct: expressed in transfected cells; host or cells: LK35.2 mouse B cell line
# TEST_PROTOCOL: LK35.2-hPD-L1 cell binding high-content screening assay
# Assay type: cell-based
# CONDITION_DESCRIPTION: cell binding assay, cell line not given; cluster symbol; read-out: CBA IC50 cluster
Positions of bridges follow the written chain, without caps; N, C: chain ends. Non-standard residues stand in square brackets, D forms with d. Residues, ends and D or L forms follow the SMILES beside them. ξ: configuration not given here. Bta = N[C@@H](Cc1csc2ccccc12)C(=O)O; NMehSer = CN[C@@H](CCO)C(=O)O; NMeNle = CCCC[C@H](NC)C(=O)O; NMeA = CN[C@@H](C)C(=O)O; ξC = NC(CS)C(=O)O
Listed here: items and their measured IC50.

COMPOUND	IC50
CCCC[C@H]1C(=O)N(C)[C@@H](CCCC)C(=O)N[C@@H](CCCNC(=N)N)C(=O)NC(C(=O)NCC(N)=O)CSCC(=O)N[C@@H](Cc2ccc(O)cc2)C(=O)N(C)[C@@H](C)C(=O)N[C@@H](CC(N)=O)C(=O)N2CCC[C@H]2C(=O)N[C@@H](CC(N)=O)C(=O)N[C@@H](CC(C)C)C(=O)N2CCC[C@H]2C(=O)N[C@@H](Cc2c[nH]c3ccccc23)C(=O)N[C@@H](CO)C(=O)N[C@@H](Cc2c[nH]c3ccccc23)C(=O)N1C (some centres unmarked) [Example 9059] ({CH2CO}-Y[NMeA]NPNLPWSW[NMeNle][NMeNle]R[ξC]G-NH2; thioether N-14)	0.00478 to 0.0729 µM
CCCC[C@H]1C(=O)N[C@@H](CCCNC(=N)N)C(=O)NC(C(=O)NCC(N)=O)CSCC(=O)N[C@@H](Cc2ccc(O)cc2)C(=O)N(C)[C@@H](C)C(=O)N[C@@H](CC(=O)O)C(=O)N2CCC[C@H]2C(=O)N[C@@H](Cc2cnc[nH]2)C(=O)N[C@@H](CC(C)C)C(=O)N2CCC[C@H]2C(=O)N[C@@H](Cc2c[nH]c3ccccc23)C(=O)N[C@@H](CO)C(=O)N[C@@H](Cc2csc3ccccc23)C(=O)N(C)[C@@H](CCOC)C(=O)N1C (some centres unmarked) [Example 9009] ({CH2CO}-Y[NMeA]DPHLPWS[Bta][NMehSer](Me)[NMeNle]R[ξC]G-NH2; thioether N-14)	0.00478 to 0.0729 µM
